From: the Deep4Chem optical property database

- Experiment summary: solvent given as SMILES
- Settings: in O
Measured parameter: emission maximum (nm)

1) CN1/C(=C/C=C(/C=C/c2sc3ccccc3[n+]2C)c2cccc(C(F)(F)F)c2)Sc2ccccc21	659
2) C/C=C/C=C/C1=NC(=C\c2ccc([O-])cc2)/C(=O)N1C	565
3) Cc1nc(-c2ccccc2)c2ccccn12	470
4) O=C([O-])c1cc(N2C(=O)C=CC2=O)ccc1-c1c2cc(F)c(=O)cc-2oc2cc([O-])c(F)cc12	520
5) CC[N+](CC)=c1ccc2cc3c(=O)oc4cc5c(cc4c3oc-2c1)CCCN5C	658
6) COc1cc(/C=C/C(=O)O)ccc1O	413
7) CN1C(=O)/C(=C/c2ccncc2)N=C1/C=C/c1ccncc1	542
8) O=c1c2cc(Cl)ccc2[nH]c2ccc(COO)cc12	425
9) CNCCCC1c2ccccc2C=Cc2ccccc21	360
10) O=C([O-])c1ccccc1-c1c2cc(I)c(=O)c(I)c-2oc2c(I)c([O-])c(I)cc12	534
11) COc1ccc2c3c(cccc13)C(=O)N(C)C2=O	462
12) OCC1O[C@@H](Cc2cc(O)cc(/C=C/c3ccc(O)c(O)c3)c2)[C@H](O)[C@@H](O)[C@@H]1O (stereo partly specified)	403
13) Cn1c(=O)c(/N=N/c2ccc(S(=O)(=O)O)c3ccccc23)c(O)c2ccccc21	582
14) CCCN1/C(=C/C=C(/C=C/c2sc3ccccc3[n+]2CCC)c2ccc([N+](=O)[O-])cc2)Sc2ccccc21	669
15) CNc1ccc(/C=C/C(=O)OC)cc1	470
16) c1ccc(-c2nc(-c3ccccc3)n3ccccc23)cc1	479
